EXPERIMENTAL_TARGET: T1, interleukin-23 receptor (IL-23R), Q5VWK5
T1 chain: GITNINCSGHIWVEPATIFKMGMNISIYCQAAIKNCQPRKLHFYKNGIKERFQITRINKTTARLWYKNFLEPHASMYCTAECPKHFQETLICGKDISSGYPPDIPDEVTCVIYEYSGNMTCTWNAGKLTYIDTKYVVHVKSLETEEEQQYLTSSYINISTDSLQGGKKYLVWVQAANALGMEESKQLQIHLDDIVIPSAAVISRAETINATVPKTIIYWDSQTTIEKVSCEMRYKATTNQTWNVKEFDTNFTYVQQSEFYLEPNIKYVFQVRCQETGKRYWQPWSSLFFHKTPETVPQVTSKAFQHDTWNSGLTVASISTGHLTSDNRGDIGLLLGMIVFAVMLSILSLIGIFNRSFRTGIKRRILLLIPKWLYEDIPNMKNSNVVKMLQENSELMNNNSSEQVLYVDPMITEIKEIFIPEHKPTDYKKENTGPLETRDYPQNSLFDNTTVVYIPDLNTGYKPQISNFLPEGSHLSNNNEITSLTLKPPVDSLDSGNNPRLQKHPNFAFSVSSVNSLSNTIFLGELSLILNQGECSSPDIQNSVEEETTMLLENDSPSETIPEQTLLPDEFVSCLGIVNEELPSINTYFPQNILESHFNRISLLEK
EXPERIMENT_DESCRIPTION: cell-based or functional assay
Starred links: 1 amine or outer side, 2 acyl side, 3 side chain; linkers in the order of their positions; H or OH if unused. Positions of bridges follow the written chain, without caps; N, C: chain ends. Non-standard residues stand in square brackets, D forms with d. No end group written: not given here. X11 = 2‑amino‑3‑(2-hydroxyquinolin-6-yl)propanoic acid, O=C(C(Cc1ccc2nc(O[*:3])ccc2c1)N[*:1])[*:2]; 2Nal(6-OH) = N[C@@H](Cc1ccc2cc(O)ccc2c1)C(=O)O; Trp(7-Me) = Cc1cccc2c(C[C@H](N)C(=O)O)c[nH]c12; AEF = NCCOc1ccc(C[C@H](N)C(=O)O)cc1; 3Pal = N[C@@H](Cc1cccnc1)C(=O)O; d(hLys) = NCCCCC[C@@H](N)C(=O)O; Pen = CC(C)(S)[C@H](N)C(=O)O; lipid = not defined here; Thp = NC1(C(=O)O)CCOCC1; Sar = CNCC(=O)O
ASSAY_METRIC: PBMC pSTAT3 IC50

BINDER | RESULT
[Pen]NT[Trp(7-Me)]K(Ac)[Pen][2‑amino‑3‑(4-(2-aminoethoxy)phenyl)propanoic acid][2‑amino‑3‑(6-hydroxynaphthalen-2-yl)propanoic acid][Thp]K(lipid)N[3Pal][Sar] (disulfide 1-6 (inferred); ends not checked; also: K10 lipidated, lipid not given here) [SEQ ID NO: 177] | > 1 nM
[Pen]NT[Trp(7-Me)]K(Ac)[Pen][2‑amino‑3‑(4-(2-aminoethoxy)phenyl)propanoic acid][X11][Thp]EN[3Pal][Sar] (disulfide 1-6 (inferred); ends not checked) [SEQ ID NO: 149] | < 0.1 nM
[d(hLys)](Me3)[Pen]NT[Trp(7-Me)]K[Pen][AEF][2Nal(6-OH)][Thp]K(Ac)N[3Pal][Sar] (disulfide 2-7 (inferred); ends not checked; also: K6: lipidated lysine, lipid not given here) [SEQ ID NO: 119] | < 1 nM
[Pen]ET[Trp(7-Me)]K(Ac)[Pen][2‑amino‑3‑(4-(2-aminoethoxy)phenyl)propanoic acid][2‑amino‑3‑(6-hydroxynaphthalen-2-yl)propanoic acid][Thp]K(Ac)N[3Pal][Sar]K(lipid) (disulfide 1-6 (inferred); ends not checked; also: K14 lipidated, lipid not given here) [SEQ ID NO: 169] | < 1 nM
R[Pen]NT[Trp(7-Me)]K(Ac)[Pen][2‑amino‑3‑(4-(2-aminoethoxy)phenyl)propanoic acid][2‑amino‑3‑(6-hydroxynaphthalen-2-yl)propanoic acid][Thp]K(Ac)N[3Pal][Sar]K(lipid) (disulfide 2-7 (inferred); ends not checked; also: Lys15 lipidated, lipid not given here) [SEQ ID NO: 221] | > 1 nM
[Pen]NT[Trp(7-Me)]K(Ac)[Pen][5‑(4-(2-amino-2-carboxyethyl)phenoxy)‑N,N,N‑trimethylpentan‑1‑aminium][2Nal(6-OH)][Thp]EN[3Pal][Sar] (not fully specified (bridges); ends and bridges not checked) [SEQ ID NO: 79] | < 0.01 nM
